Test system: warm season plant species
METHOD NOTES: B2 Post-emergence efficacy Test 2, warm season plant species
Assay type: in vivo
APPLIED CONDITIONS: Echinochloa crus galli, 500 g/Ha, 15 days after application, 0-100 scale, 0=no damage, 100=total kill
MEASURED METRIC: Herbicidal activity, ECHCG

{"COMPOUND": "Cc1nn(C)c(=O)c(-c2c(F)ccc(Cl)c2CCc2ccc(C#N)cc2)c1O [Compound 1.024]", "VALUE": 100}
{"COMPOUND": "Cc1nn(C)c(=O)c(-c2c(F)ccc(Cl)c2CCc2ccccc2C(F)(F)F)c1O [Compound 1.066]", "VALUE": 90}
{"COMPOUND": "Cc1nn(C)c(=O)c(-c2c(F)ccc(Cl)c2CCc2ccc(F)cc2)c1OC(=O)C(C)C [Compound 1.125]", "VALUE": 100}
{"COMPOUND": "Cc1nn(C)c(=O)c(-c2c(F)ccc(Cl)c2CCc2ccc(Cl)cc2)c1OC(=O)C(C)C [Compound 1.089]", "VALUE": 100}
{"COMPOUND": "Cc1nn(C)c(=O)c(-c2c(F)ccc(Cl)c2CCc2ccc(F)cc2)c1O [Compound 1.048]", "VALUE": 100}
